Measured IC50 at 3 days, listed per entry for reference.
PROCEDURE TEXT: Cytotoxicity against human HepG2 cells assessed as cell growth inhibition incubated for 3 days by CellTiter-Glo reagent-based luminescence assay
Type: toxicity
READOUT LABEL: IC50 at 3 days (µM)

1) Nc1c(C(=O)N2CC(F)(F)C2)sc2nc(-c3ccccc3)ccc12 ... 38
2) COc1ccc(-c2cc(C(F)(F)F)c3c(N)c(C(=O)N4CC5(CCOC5)C4)sc3n2)cc1 ... 33
3) Nc1c(C(=O)N2CCOCC2)sc2nc(-c3ccccc3)ccc12 ... 56

----------
Measured IC50 at 3 days, listed per entry for reference.
PROCEDURE TEXT: Cytotoxicity against human HepG2 cells assessed as cell growth inhibition incubated for 3 days by CellTiter-Glo reagent-based luminescence assay
Assay type: toxicity
READOUT LABEL: IC50 at 3 days (µM)

1) COc1ccc(-c2cc(C(F)(F)F)c3c(N)c(C(=O)N4C5CCCC4COC5)sc3n2)cc1 ... 42
2) COc1ccc(-c2cc(C(F)(F)F)c3c(N)c(C(=O)NC(C)c4ccccc4)sc3n2)cn1 (stereo not given) ... 19
3) COC1CN(C(=O)c2sc3nc(-c4ccccc4)ccc3c2N)C1 ... 38
4) Cc1ccc(NC(=O)c2sc3nc(C)cc(C(F)(F)F)c3c2N)cc1 ... 31

----------
Measured selectivity ratio, listed per entry for reference.
PROCEDURE TEXT: Selectivity index, ratio of IC50 for cytotoxicity against human HepG2 cells to IC90 for antibacterial activity against wild type Mycobacterium tuberculosis H37Rv-LP DREAM8 strain expressing codon-optimized DsRed
Assay type: toxicity, cell-based
READOUT LABEL: selectivity ratio

1. COc1ccc(-c2cc(C(F)(F)F)c3c(N)c(C(=O)N4CCCC4(C)C)sc3n2)cc1 ... < 1
2. COc1ccc(-c2cc(C(F)(F)F)c3c(N)c(C(=O)N4CC5(CCOC5)C4)sc3n2)cc1 ... < 1
3. COc1ccc(-c2cc(C(F)(F)F)c3c(N)c(C(=O)Nc4ccc(C)c(C)c4)sc3n2)cc1 ... < 1
4. CCC(NC(=O)c1sc2nc(-c3ccc(OC)cc3)cc(C(F)(F)F)c2c1N)c1ccccc1 (stereo not drawn) ... > 135
5. COc1ccc(-c2cc(C(F)(F)F)c3c(N)c(C(=O)N4CC(F)(F)C4)sc3n2)cc1 ... < 1
6. COc1ccc(-c2cc(C(F)(F)F)c3c(N)c(C(=O)NCc4ccccc4)sc3n2)cc1 ... < 1
7. COc1ccc(-c2cc(C(F)(F)F)c3c(N)c(C(=O)N4CCC4)sc3n2)cc1 ... < 1
8. COc1ccc(-c2cc(C(F)(F)F)c3c(N)c(C(=O)NCCc4ccccc4)sc3n2)cc1 ... < 1
9. COc1ccc(-c2cc(C(F)(F)F)c3c(N)c(C(=O)N4CC(C)OC(C)C4)sc3n2)cc1 (stereo not drawn) ... < 1
10. COc1ccc(-c2cc(C(F)(F)F)c3c(N)c(C(=O)N4C5CCCC4COC5)sc3n2)cc1 ... < 1
11. COc1ccc(-c2cc(C(F)(F)F)c3c(N)c(C(=O)N4CC(OC)C4)sc3n2)cc1 ... < 1
12. COc1ccc(-c2cc(C(F)(F)F)c3c(N)c(C(=O)NCc4cccc(C)c4C)sc3n2)cc1 ... 38
13. COc1ccc(-c2cc(C(F)(F)F)c3c(N)c(C(=O)NC45CC6CC(CC(O)(C6)C4)C5)sc3n2)cc1 ... 3
